System: T1, cynomolgus monkey IL-2Rβ/CD122 subunit (cynomolgus monkey) (UniProt Q38J85)
T1 sequence (looked up): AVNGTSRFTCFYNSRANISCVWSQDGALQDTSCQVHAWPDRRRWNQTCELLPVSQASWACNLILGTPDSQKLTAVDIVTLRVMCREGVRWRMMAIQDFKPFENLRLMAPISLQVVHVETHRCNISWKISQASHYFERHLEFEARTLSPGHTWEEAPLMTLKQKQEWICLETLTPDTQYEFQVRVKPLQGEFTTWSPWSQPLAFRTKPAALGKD
Protocol notes: ELISA, monovalent; EC50 cyno vs human subunit
Measurement type: Fold change (fold)
Answers are plain numbers, in fold.

Known Fold change results, listed for orientation:
>  <Binder>
23-MP06F03 VHH-hFc, monospecific monovalent (Fc fusion, part only; not given: Both Fc arms and linker, not shown: another chain or arm of the molecule; a dimerising Fc or GST; large carriers; small tags and cut ends) VHH: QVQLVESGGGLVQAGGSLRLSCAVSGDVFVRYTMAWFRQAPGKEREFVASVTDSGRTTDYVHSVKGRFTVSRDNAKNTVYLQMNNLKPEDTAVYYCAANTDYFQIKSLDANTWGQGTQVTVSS

>  <Fold change / fold>
1.5

$$$$
>  <Binder>
19-MP03F08 VHH-hFc, monospecific monovalent (Fc fusion, part only; not given: Both Fc arms and linker, not shown: another chain or arm of the molecule; a dimerising Fc or GST; large carriers; small tags and cut ends) VHH: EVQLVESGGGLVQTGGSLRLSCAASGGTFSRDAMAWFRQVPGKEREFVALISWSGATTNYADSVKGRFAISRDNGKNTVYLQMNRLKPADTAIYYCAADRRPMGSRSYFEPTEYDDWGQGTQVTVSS

>  <Fold change / fold>
1.4

$$$$
>  <Binder>
22-MP03F12 VHH-hFc, monospecific monovalent (Fc fusion, part only; not given: Both Fc arms and linker, not shown: another chain or arm of the molecule; a dimerising Fc or GST; large carriers; small tags and cut ends) VHH: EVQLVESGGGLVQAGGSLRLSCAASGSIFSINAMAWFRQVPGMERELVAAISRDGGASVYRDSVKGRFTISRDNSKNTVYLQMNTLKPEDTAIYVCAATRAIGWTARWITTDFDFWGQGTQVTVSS

>  <Fold change / fold>
1.7

$$$$

get_value(item= 24-MP06E05 VHH-hFc, monospecific monovalent (Fc fusion, part only; not given: Both Fc arms and linker, not shown: another chain or arm of the molecule; a dimerising Fc or GST; large carriers; small tags and cut ends) VHH: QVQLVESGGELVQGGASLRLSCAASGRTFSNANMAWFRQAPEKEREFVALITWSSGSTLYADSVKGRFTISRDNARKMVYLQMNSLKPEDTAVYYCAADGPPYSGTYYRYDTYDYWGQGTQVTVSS , readout=Fold change) returns 3.2
